Source listed as patent US20240218057A1.

# Tested On: T1, SARS-COV-2 RBD (SARS-COV-2, UniProt P0DTC2 319-539)
# T1 construct: also called WT RBD
# Assay Protocol: ELISA, RBD coated
Readings of EC50 for the listed binders
Form field: result (number plus unit)

Example binders with recorded EC50:
Binder	Endpoint Value
C967 (antibody, V domains shown, IgG; V domains only) VH: QVQLVESGGGVVQPGRSLRLSCAASGFTFRIYAMHWVRQAPGKGLEWVAIIWNDGSKQYYADSMKGRFTISRDNSKNTLYLQMNSLRDEDTALYYCAREGVALAGNGVDGFDIWGQGTMVTVSS VL: DIQMTQSPSSLSASVGDRVTITCRASQTISTFLNWYRQIPGKAPKLLIYAASSLQSGVPSRFSGSGSGTDFTLTISSLQPEDFATYYCQQTYSTPYTFGRGTKLEIK	3.58 ng/mL
C895 (antibody, V domains shown, IgG; V domains only) VH: QVQLVQSGAEVKKPGSSVKVSCKASGGTFTSYAFSWVRQAPGQGLEWMGGIIPIFGTTNYAQKFQGRVTITADESTSTAYMELSSLRSEDTAVYYCARPEGCGSRTSCTPGAYYYGMDVWGQGTTVTVSS VL: EIVLTQSPATLSLSPGERATLSCRASQSVGSYLAWYQQKPGQAPRLLIYDASNRATGIPARFSGSGSGTDFTLTISSLEPEDFAFYFCQQRNSWPPEYSFGQGTKLEIK	2.21 ng/mL
C950 (antibody, V domains shown, IgG; V domains only) VH: QVQLVESGGGLVKPGGSLRLSCAASGFTFSDYCVTWIRQAPGKGLEWLSYSNTNDSSRSYADSVKGRFTISRDNAKNSLYLQMDSLRAEDTAVYYCARRGDGNVPLFHYYYMDVWGKGTTVTVSS VL: QSVLTQPPSASGTAGQRVTISCSGGSSNIGSNTVHWYQQLPGTAPKLLIYSNYKRPSGVPDRFSGSKSGASASLAISGLQSEDEAEYYCAAWDDSANGPIFGGGTKLTVL	2.15 ng/mL
C1031 (antibody, V domains shown, IgG; V domains only) VH: QLQLQESGPGLVKPSETLSLTCTVSGGSINTSTYYWGWIRQPPGKGLEWIGNIYYSGITYYNPSLKSRVTISVDTSKNQFSLKLRSVTAADTAVYYCARQHRFGSGSSELLWGQGTLVTVSS VL: QSALTQPPSASGSPGQSVTISCTGTSSDVGSYNYVSWYQQHPGKAPKLMIYEVTKRPSGVPDRFSGSKSGNTASLTVSGLQADDEADYYCSSYAGSSNLVFGGGTKLTV	8.71 ng/mL

Shifting focus to the binder that follows.
Find the recorded EC50 belonging to C841 (antibody, V domains shown, IgG; V domains only) VH: EVQLVESGGGLVQPGGSLRLSCAASGFTFSIFSMNWVRQAPGKGLEWISYISSSSGSRHYADSVKGRFTISRDNAKNSLYLQMNNLRDEDTAMYYCAREAHDGALTGYGDYLNWFDPWGQGVLVTVSS VL: SYELTQPPSVSVAPGKTARIPCGGDSVGSKSVHWYQQKSGQAPVLVIHSDSDRPSGIPERFSGSNSGNTATLTITGVAAGDEADYYCHVWDTIGDRFYWVFGGGTKLTVL and report it.
3.15 ng/mL
